# test_system: AAK1 (GST-Xa-hAAK1) (Homo sapiens, UniProt Q2M2I8)
# Construct: made in house
# Sequence (Q2M2I8 whole entry): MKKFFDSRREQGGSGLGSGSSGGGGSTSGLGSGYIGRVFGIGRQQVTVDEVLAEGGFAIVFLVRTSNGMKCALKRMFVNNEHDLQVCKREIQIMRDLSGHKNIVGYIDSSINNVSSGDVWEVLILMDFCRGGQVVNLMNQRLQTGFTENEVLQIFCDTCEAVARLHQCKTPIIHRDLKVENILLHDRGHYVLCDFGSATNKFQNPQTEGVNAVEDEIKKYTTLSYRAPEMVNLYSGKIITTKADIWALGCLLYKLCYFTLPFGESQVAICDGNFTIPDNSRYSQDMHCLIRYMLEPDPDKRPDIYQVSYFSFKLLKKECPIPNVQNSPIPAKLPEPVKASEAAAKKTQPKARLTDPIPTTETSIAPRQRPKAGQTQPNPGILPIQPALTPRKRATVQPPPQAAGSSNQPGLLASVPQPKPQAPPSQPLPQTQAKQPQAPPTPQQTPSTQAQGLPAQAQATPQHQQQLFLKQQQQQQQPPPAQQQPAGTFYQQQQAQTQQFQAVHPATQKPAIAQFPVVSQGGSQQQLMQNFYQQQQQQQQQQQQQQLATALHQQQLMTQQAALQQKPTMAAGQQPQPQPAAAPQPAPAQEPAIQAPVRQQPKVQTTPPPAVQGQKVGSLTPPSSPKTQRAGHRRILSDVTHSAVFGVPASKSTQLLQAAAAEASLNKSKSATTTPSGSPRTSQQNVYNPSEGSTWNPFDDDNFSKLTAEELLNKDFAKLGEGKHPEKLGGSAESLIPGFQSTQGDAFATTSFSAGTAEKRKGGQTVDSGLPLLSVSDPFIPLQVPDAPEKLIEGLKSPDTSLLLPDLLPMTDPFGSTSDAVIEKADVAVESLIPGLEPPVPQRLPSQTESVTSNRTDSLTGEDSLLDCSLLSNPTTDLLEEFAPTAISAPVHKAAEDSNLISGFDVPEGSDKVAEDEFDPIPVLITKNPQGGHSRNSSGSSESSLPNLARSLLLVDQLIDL
# assay_notes: AAK1 Kinase Assay (Caliper LabChip, fluoresceinated peptide substrate)
# Assay type: biochemical
# test_settings: AAK1 functional potency; numeric values; read-out: IC50 (nM), functional potency
Reported IC50 is given for each of the following compounds.
observed_property: IC50

[[record]]
compound = "COc1cc2nc(C(N)CC(C)C)cc(C#N)c2cc1-c1cnco1 (single isomer, unassigned; (+))"
test_value = "4.1 nM"

[[record]]
compound = "CC(C)C[C@@H](N)c1cc(C#N)c2cc(-c3ccncc3)ccc2n1 (single isomer, unassigned)"
test_value = "12 nM"

[[record]]
compound = "NC(=O)c1cc(C(N)C2CCCCC2)nc2ccc(-c3ccncc3)cc12 (single isomer, unassigned)"
test_value = "54 nM"

[[record]]
compound = "CC(=O)Nc1cc(-c2ccc3nc(C(N)CC(C)C)ccc3c2)c2ccccc2n1 (single isomer, unassigned)"
test_value = "1200 nM"

